experiment: Activating wavelength by UV spectrophotometer (diethylene glycol dimethyl ether); format: physicochemical; conditions: Table 1; approximately 0.5 milligram per milliliter in diethylene glycol dimethyl ether
PROPERTY: Activating Wavelength in Diethylene Glycol Dimethyl Ether

The measured Activating Wavelength in Diethylene Glycol Dimethyl Ether associated with COc1ccc2c3c(ccc2c1)OC(c1ccccc1)(c1ccccc1)C=C3 reads 359 nm

The measured Activating Wavelength in Diethylene Glycol Dimethyl Ether associated with COc1ccc2c3c(ccc2c1C)OC(c1ccccc1)(c1ccccc1)C=C3 reads 369 nm

The measured Activating Wavelength in Diethylene Glycol Dimethyl Ether associated with CCCOC(=O)c1cc2c3c(ccc2cc1O)OC(c1ccccc1)(c1ccccc1)C=C3 reads 408 nm

The measured Activating Wavelength in Diethylene Glycol Dimethyl Ether associated with C1=CC(c2ccccc2)(c2ccccc2)Oc2ccc3ccccc3c21 [compound 2, 3,3-diphenyl-3H-naphtho[2,1-b]pyran] reads 348 nm

The measured Activating Wavelength in Diethylene Glycol Dimethyl Ether associated with COC(=O)c1cc2c3c(ccc2cc1OC(C)=O)OC(c1ccc(OC)cc1)(c1ccc(OC)cc1OC)C=C3 (stereo not drawn) reads 376 nm

The measured Activating Wavelength in Diethylene Glycol Dimethyl Ether associated with CCCOC(=O)c1cc2c3c(ccc2cc1OC)OC(c1ccccc1)(c1ccccc1)C=C3 reads 382 nm
